// provenance: PubChem BioAssay (NCI)

tested on: ACHN renal; assay: NCI tumour cell line growth inhibition, 48 h
Here, each record is paired with measured TGI data.

{"columns": ["molecule", "measured_target", "TGI"],
 "data": [
  ["Cc1ccc([N+](=O)[O-])cc1S(=O)(=O)Nc1ccc(C2=NN(C(=O)c3ccccc3)C(c3ccccc3)C2)cc1 (stereo not given)", "ACHN renal", "93.6 µM"],
  ["Cc1ccc(S(=O)(=O)N/N=C2\\CC3C4C=CC3C2C4)cc1 (stereo not given)", "ACHN renal", "> 100 µM"],
  ["O=c1c2ccc3cccc4c(=O)c5ccc6cccc1c6c5-c2c34", "ACHN renal", "> 50 µM"],
  ["Nc1cc(-c2ccccc2)nn1-c1nsc2ccccc12", "ACHN renal", "> 100 µM"],
  ["O=C(O)c1cc(C(=O)O)nc(C(=O)O)c1", "ACHN renal", "> 100 µM"],
  ["COc1ccccc1/C=C1\\Sc2scc(-c3ccc(O)c(O)c3)[n+]2C1=O", "ACHN renal", "31 µM"],
  ["O=C(N/N=C/c1ccccc1O)c1ccccc1O", "ACHN renal", "> 100 µM"],
  ["C[N+](C)(CCNC(=O)c1cccc2cc3ccccc3nc12)Cc1ccc([N+](=O)[O-])cc1", "ACHN renal", "> 100 µM"],
  ["O=P(O)(NCCCl)NCCCl", "ACHN renal", "> 100 µM"],
  ["COc1ccc2cc1Oc1ccc(cc1)CC1c3cc4c(cc3CCN1C)Oc1c(OC)cc3c(c1O4)C(C2)N(C)CC3 (stereo not given)", "ACHN renal", "17.9 µM"],
  ["COc1ccc(/C=C2\\C(=O)N(C(=O)c3ccc(NC(C)=O)cc3)N=C2C)cc1", "ACHN renal", "> 100 µM"],
  ["Nc1ccc(C(c2ccccc2)(c2ccccc2)c2ccccc2)cc1", "ACHN renal", "> 100 µM"],
  ["COc1nc(N)c(C#N)c(C#N)c1C#N", "ACHN renal", "> 10 µM"],
  ["CC1(C)OC2C(CO)OC(n3cnc(N)nc3=O)C2O1 (stereo not given)", "ACHN renal", "> 100 µM"],
  ["Cc1ccc([N+](=O)[O-])cc1S(=O)(=O)Nc1ccc(C(=O)/C=C/c2cccs2)cc1", "ACHN renal", "87.6 µM"]
]}

----------
Here, each record is paired with measured TGI data.
system: HCC-2998 colon; assay: NCI tumour cell line growth inhibition, 48 h

{"columns": ["molecule", "TGI"],
 "data": [
  ["CC12OC1(C)C1C(=O)OCC1C2=O (stereo not drawn)", "> 100 µM"],
  ["COc1cc(/C=C2\\C(=O)N(c3cc(Cl)ccc3Cl)C(c3ccccc3)S2(=O)=O)cc(OC)c1OC (stereo not drawn)", "> 100 µM"],
  ["Clc1ccc(CSc2ncnc3c2ncn3C2CCCCO2)cc1 (stereo not drawn)", "38.1 µM"],
  ["COP(=O)(OC)/C(=C/c1c[nH]c2ccccc12)C(=O)O", "> 100 µM"],
  ["COc1ccc(C2[C@H]3C(=O)N(c4ccc(Cc5ccc(N6C(=O)[C@@H]7ON(c8ccccc8)C(c8ccc(OC)cc8)[C@@H]7C6=O)cc5)cc4)C(=O)[C@H]3ON2c2ccccc2)cc1 (stereo partly drawn)", "> 100 µM"],
  ["C(#Cc1cnccn1)/C=C\\C#Cc1cnccn1", "11.5 µM"],
  ["O=C(N/N=C/c1ccccc1O)c1ccccc1O", "> 100 µM"],
  ["CCN(CC)C(=O)C[n+]1c2ccccc2n2cc(N)ccc21", "> 100 µM"]
]}

----------
Here, each record is paired with measured TGI data.
system: RXF-631 renal; assay: NCI tumour cell line growth inhibition, 48 h

{"columns": ["molecule", "TGI"],
 "data": [
  ["CC1CC2OC(=O)CC2C[C@@H]1O[Si](C)(C)C(C)(C)C (stereo partly drawn)", "> 100 µM"],
  ["O=C(COc1ccc(/C=C/C(=O)c2ccc(Cl)cc2)cc1)Nc1c(Cl)cccc1Cl", "> 100 µM"],
  ["O=S(=O)(O)SC/C=C\\CSS(=O)(=O)O", "> 100 µM"]
]}

----------
test system: SR leukemia; experiment: NCI tumour cell line growth inhibition, 48 h
*1 amine or outer side, *2 acyl side, *3 side chain or, on linkers, in order; H or OH if unused. Where a SMILES comes first, the peptide text is derived from it. Bridges are numbered along the chain shown (N, C = ends). [ ]: non-standard residue; d: D form. Adda = CO[C@@H](Cc1ccccc1)[C@@H](C)/C=C(C)/C=C/[C@H](N[*:1])[C@H](C)C(=O)[*:2]; dAsp(3S-Me) = C[C@H](C(=O)[*:3])[C@@H](N[*:1])C(=O)[*:2]; d(γGlu) = O=C(O)[C@@H](CCC(=O)[*:2])N[*:1]; NMeDha = C=C(NC)C(=O)O

{"columns": ["compound", "measured_target", "TGI"],
 "data": [
  ["COc1ccc(NC(=O)/C(Cc2nc3ccccc3[nH]c2=O)=N\\O)c(OC)c1", "SR leukemia", "> 100 µM"],
  ["Cn1c(O)c(C2=Nc3ccccc3C2=O)c2ccccc21", "SR leukemia", "> 100 µM"],
  ["COc1nc(N)c(C#N)c(C#N)c1C#N", "SR leukemia", "> 10 µM"],
  ["CCN(CC)CCOc1ccc(N2C(=O)c3cccc4cc([N+](=O)[O-])cc(c34)C2=O)cc1", "SR leukemia", "32.8 µM"],
  ["O=S(=O)(O)SC/C=C\\CSS(=O)(=O)O", "SR leukemia", "> 100 µM"],
  ["C=C1C(=O)N[C@H](C)C(=O)N[C@@H](CC(C)C)C(=O)N[C@@H](C(=O)O)[C@H](C)C(=O)N[C@@H](CCCN=C(N)N)C(=O)N[C@@H](/C=C/C(C)=C/[C@H](C)[C@H](Cc2ccccc2)OC)[C@H](C)C(=O)N[C@@H](C(=O)O)CCC(=O)N1C (R[Adda][d(γGlu)][NMeDha][dA]L[dAsp(3S-Me)]-OH; lactam N-7)", "SR leukemia", "> 5 µM"],
  ["COc1cc(C[C@@H](C)N)cc(OC)c1", "SR leukemia", "> 100 µM"],
  ["Cc1ncc([N+](=O)[O-])n1CCNC(=O)CCCn1ccnc1[N+](=O)[O-]", "SR leukemia", "> 100 µM"],
  ["COC(=O)c1cc(OC(C)=O)c2c(OC)ccc(OC)c2c1", "SR leukemia", "> 100 µM"]
]}

----------
tested on: SN12C renal; assay: NCI tumour cell line growth inhibition, 48 h
Here, each record is paired with measured TGI data.

{"columns": ["compound", "TGI"],
 "data": [
  ["COc1cc2ncn(-c3cc(O[C@H](C)c4ccccc4Cl)c(C(N)=O)s3)c2cc1OC", "> 21.5 µM"],
  ["C1CSCCCSCCCSCCCSCCCSC1", "> 100 µM"],
  ["O=C(Nc1cccc(-n2cc(-c3ccncc3)c(-c3ccc(Cl)c(O)c3)n2)c1)Nc1ccc(Cl)c(C(F)(F)F)c1", "10.3 µM"],
  ["COc1ccc(/C=N/c2nc3cc4sc(/N=C/c5ccc(OC)cc5)nc4cc3s2)cc1", "> 100 µM"],
  ["C#C[C@]1(O)CC[C@H]2[C@@H]3CCC4=CC(=NCCOC(=O)c5cccc6cc7ccccc7nc56)CC[C@@H]4[C@H]3CC[C@@]21C", "> 100 µM"],
  ["NCCN.NCCN.[Cl-].[O]=[Os+2]=[O]", "> 100 µM"],
  ["CC(C)=CCc1c(O)c(CC=C(C)C)c2oc(-c3ccc(O)cc3O)c(CC=C(C)C)c(=O)c2c1O", "21.1 µM"],
  ["CCC(C)CN1C(=O)NC(Cc2ccccc2)C1=O (stereo unspecified)", "> 100 µM"],
  ["C=CC1(CC)/C(=N\\O)C(CC)(CC)C(=O)N1O (stereo unspecified)", "> 100 µM"],
  ["O=c1c2ccc3cccc4c(=O)c5ccc6cccc1c6c5-c2c34", "> 50 µM"],
  ["CCn1cc(C(=O)O)c(=O)c2cc(F)c(N3CCN(S(=O)(=O)c4ccc(Cl)cc4)CC3)cc21", "> 100 µM"],
  ["N#CC(/C(CCCC(=O)Nc1cccc([N+](=O)[O-])c1)=N/NC(=O)c1cc2ccccc2cc1O)c1ccccc1 (stereo unspecified)", "> 100 µM"],
  ["COc1cc(/C=C2\\C(=O)N(c3cc(Cl)ccc3Cl)C(c3ccccc3)S2(=O)=O)cc(OC)c1OC (stereo unspecified)", "> 100 µM"],
  ["CCc1ccc(CNCC(O)c2ccccc2)cc1 (stereo unspecified)", "> 100 µM"],
  ["COc1cc(C[C@@H](C)N)cc(OC)c1", "> 100 µM"],
  ["CC1CC2OC(=O)CC2C[C@@H]1O[Si](C)(C)C(C)(C)C (stereo partly specified)", "> 100 µM"]
]}
